Data provenance is the RNAGym collection of RNA variant scans (doi:10.1093/molbev/msab373).

// reported reverse-splicing fitness per item
B1: Azoarcus group I ribozyme (parent)
chain: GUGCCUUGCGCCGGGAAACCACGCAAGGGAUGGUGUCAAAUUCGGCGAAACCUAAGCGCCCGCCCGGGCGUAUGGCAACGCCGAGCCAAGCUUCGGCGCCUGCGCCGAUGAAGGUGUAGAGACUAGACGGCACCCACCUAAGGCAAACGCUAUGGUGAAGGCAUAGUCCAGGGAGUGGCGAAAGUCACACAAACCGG

# Variants of: B1
# Procedure summary: reverse-splicing fitness (ratio to wild type); higher = more active; in vitro selection; Mg2+ level not given
Please respond with just the number, no unit label.

A120G C150G C169U	0.0614

q: Item C82G A111U A120C A145G C150G C169U U176G has what recorded reverse-splicing fitness?
a: 0.00871

q: Try this variant next: C82A A111C A145U C169G U176G
a: 0.00756

q: Do the same for A111C C150G C169G U176C please
a: 0.00414

q: Follow-up entry: A120C A145C C150A C169U U176G
a: 0.00561

q: Also A111U A120U A145U C150G C169U U176C , if possible.
a: 0.0031

q: Another variant to look at: C82U A111G A120U A145C U176C
a: 0.0117

q: Field entry: C82G A120U C150U C169U U176G
a: 0.00193

q: Do the same for C82U A111G A145U C150U C169U please
a: 0.0088

q: Entry to check: C82U A111U A120C A145C C150A
a: 0.00788

q: # repeat for A120U C150G C169A U176G
a: 0.00242

q: Cool, now C82A A111G A120U A145C C150G C169G U176G
a: 0.00217

q: Also need C82G A111U A120G A145U C150A C169U U176C , thanks.
a: 0.0142

q: // query: C82A A111C A120G A145C U176G
a: 0.00486

q: Input C82A A111G A120C A145C
a: 0.0362
